Data origin, for the record: patent US20210179666A1

In this section we review reported mMC3R pA2 values for a set of molecules.
target: mMC3R (Mus musculus, UniProt P33033); conditions: Example 2; antagonist, Schild analysis with NDP-MSH; ± SEM; <5.5 = no antagonist potency up to 10,000 nM
Sequence (P33033 whole entry): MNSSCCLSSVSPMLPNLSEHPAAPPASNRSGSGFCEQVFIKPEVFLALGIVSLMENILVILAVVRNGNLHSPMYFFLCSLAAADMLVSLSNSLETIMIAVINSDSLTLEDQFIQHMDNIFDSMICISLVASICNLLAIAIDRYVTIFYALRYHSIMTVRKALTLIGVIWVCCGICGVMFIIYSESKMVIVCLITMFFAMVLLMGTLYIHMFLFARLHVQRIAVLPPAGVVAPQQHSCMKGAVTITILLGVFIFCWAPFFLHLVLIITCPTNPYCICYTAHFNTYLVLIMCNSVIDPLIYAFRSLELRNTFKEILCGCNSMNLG

{"Molecule": "C[C@@H]1NC(=O)[C@H](CN)NC(=O)[C@H](Cc2ccccc2)NC(=O)CN(Cc2ccccc2)C(=O)[C@H](CCCNC(=N)N)NC(=O)[C@@H]2CCCN2C(=O)[C@H]2CCCN2C(=O)[C@H](Cc2ccccc2)NC1=O [MDE9-32c, c[Pro-Arg-NPhe-Phe-Dap-Ala-Phe-DPro]]", "mMC3R pA2": 6.9}
{"Molecule": "C[C@@H]1NC(=O)[C@H](CN)NC(=O)CN(Cc2ccccc2)C(=O)[C@H](Cc2ccccc2)NC(=O)[C@H](CCCNC(=N)N)NC(=O)[C@@H]2CCCN2C(=O)[C@H]2CCCN2C(=O)[C@H](Cc2ccccc2)NC1=O [MDE9-93c, c[Pro-Arg-Phe-NPhe-Dap-Ala-Phe-DPro]]", "mMC3R pA2": 7.1}
{"Molecule": "C[C@@H]1NC(=O)[C@H](CC(N)=O)NC(=O)[C@H](Cc2ccccc2)NC(=O)CN(Cc2ccccc2)C(=O)[C@H](CCCNC(=N)N)NC(=O)[C@@H]2CCCN2C(=O)[C@H]2CCCN2C(=O)[C@H](Cc2ccccc2)NC1=O [MDE9-77c, c[Pro-Arg-NPhe-Phe-Asn-Ala-Phe-DPro]]", "mMC3R pA2": 5.8}
{"Molecule": "C[C@@H]1NC(=O)[C@H](CC(N)=O)NC(=O)CN(Cc2ccccc2)C(=O)[C@H](Cc2ccccc2)NC(=O)[C@H](CCCNC(=N)N)NC(=O)[C@@H]2CCCN2C(=O)[C@H]2CCCN2C(=O)[C@H](Cc2ccccc2)NC1=O [MDE9-88c, c[Pro-Arg-Phe-NPhe-Asn-Ala-Phe-DPro]]", "mMC3R pA2": 6.0}
{"Molecule": "C[C@@H]1NC(=O)[C@H](CN)NC(=O)[C@H](Cc2ccccc2)NC(=O)[C@H](Cc2ccccc2)NC(=O)[C@H](CCCNC(=N)N)NC(=O)[C@@H]2CCCN2C(=O)[C@H]2CCCN2C(=O)[C@H](Cc2ccccc2)NC1=O [MDE 6-82-1c, c[Pro-Arg-Phe-Phe-Dap-Ala-Phe-DPro]]", "mMC3R pA2": 6.5}

====

biological target: mMC3R (Mus musculus, UniProt P33033); test: 125I-NDP-MSH competitive binding assay, transfected HEK293 cells, mMC3R; conditions: binding IC50 versus control 1 (Asn) or 2 (Dap)
Square brackets hold non-standard residues; d marks the D form. Peptide text beside a SMILES is read from it. Dap = NC[C@H](N)C(=O)O
In this section we review reported mMC3R Fold Diff values for a set of compounds.
Recorded Endpoint: mMC3R Fold Diff

{"Compound": "C[C@@H]1NC(=O)[C@H](CN)NC(=O)[C@H](Cc2ccccc2)NC(=O)[C@H](Cc2ccccc2)NC(=O)[C@H](Cc2c[nH]cn2)NC(=O)[C@@H]2CCCN2C(=O)[C@H]2CCCN2C(=O)[C@H](Cc2ccccc2)NC1=O [ZMK 2-99, c[Pro-His-Phe-Phe-Dap-Ala-Phe-DPro]] (cyclo(PHFF[Dap]AF[dP]))", "Meas Value": 5}
{"Compound": "C[C@@H]1NC(=O)[C@H](CN)NC(=O)[C@H](Cc2ccccc2)NC(=O)[C@H](Cc2ccc(O)cc2)NC(=O)[C@H](CCCNC(=N)N)NC(=O)[C@@H]2CCCN2C(=O)[C@H]2CCCN2C(=O)[C@H](Cc2ccccc2)NC1=O [ZMK 2-112, c[Pro-Arg-Tyr-Phe-Dap-Ala-Phe-DPro]] (cyclo(PRYF[Dap]AF[dP]))", "Meas Value": 9}
{"Compound": "C[C@@H]1NC(=O)[C@H](CN)NC(=O)[C@H](Cc2ccccc2)NC(=O)[C@H](Cc2ccccc2)NC(=O)[C@H](CS)NC(=O)[C@@H]2CCCN2C(=O)[C@H]2CCCN2C(=O)[C@H](Cc2ccccc2)NC1=O [ZMK 3-20, c[Pro-Cys-Phe-Phe-Dap-Ala-Phe-DPro]] (cyclo(PCFF[Dap]AF[dP]))", "Meas Value": 15}
{"Compound": "CC(C)[C@@H]1NC(=O)[C@H](CC(N)=O)NC(=O)[C@H](Cc2ccccc2)NC(=O)[C@H](Cc2ccccc2)NC(=O)[C@H](CCCNC(=N)N)NC(=O)[C@@H]2CCCN2C(=O)[C@H]2CCCN2C(=O)[C@H](Cc2ccccc2)NC1=O [ZMK 2-82, c[Pro-Arg-Phe-Phe-Asn-Val-Phe-DPro]] (cyclo(PRFFNVF[dP]))", "Meas Value": 3}

====

target: hMC4R (Homo sapiens); test: 125I-NDP-MSH competitive binding assay, transfected HEK293 cells, hMC4R; conditions: binding IC50 versus control 1 (Asn) or 2 (Dap)
Square brackets hold non-standard residues; d marks the D form. Peptide text beside a SMILES is read from it. Dap = NC[C@H](N)C(=O)O
Response field label takes 1 (yes) when hMC4R Fold Diff is strictly below 300 and 0 (no) in all other cases.

{"Molecule": "C[C@@H]1NC(=O)[C@H](CN)NC(=O)[C@H](Cc2ccccc2)NC(=O)[C@H](Cc2ccccc2)NC(=O)[C@H](CS)NC(=O)[C@@H]2CCCN2C(=O)[C@H]2CCCN2C(=O)[C@H](Cc2ccccc2)NC1=O [ZMK 3-20, c[Pro-Cys-Phe-Phe-Dap-Ala-Phe-DPro]] (cyclo(PCFF[Dap]AF[dP]))", "Label": "0 (no)"}
{"Molecule": "C[C@@H]1NC(=O)[C@H](CN)NC(=O)[C@H](Cc2ccccc2)NC(=O)[C@H](Cc2ccc(O)cc2)NC(=O)[C@H](CCCNC(=N)N)NC(=O)[C@@H]2CCCN2C(=O)[C@H]2CCCN2C(=O)[C@H](Cc2ccccc2)NC1=O [ZMK 2-112, c[Pro-Arg-Tyr-Phe-Dap-Ala-Phe-DPro]] (cyclo(PRYF[Dap]AF[dP]))", "Label": "1 (yes)"}
{"Molecule": "C[C@@H]1NC(=O)[C@H](CC(N)=O)NC(=O)[C@H](Cc2ccccc2)NC(=O)[C@H](Cc2ccc(O)cc2)NC(=O)[C@H](CCCNC(=N)N)NC(=O)[C@@H]2CCCN2C(=O)[C@H]2CCCN2C(=O)[C@H](Cc2ccccc2)NC1=O [ZMK 2-110, c[Pro-Arg-Tyr-Phe-Asn-Ala-Phe-DPro]] (cyclo(PRYFNAF[dP]))", "Label": "0 (no)"}
{"Molecule": "CC(C)[C@@H]1NC(=O)[C@H](CC(N)=O)NC(=O)[C@H](Cc2ccccc2)NC(=O)[C@H](Cc2ccccc2)NC(=O)[C@H](CCCNC(=N)N)NC(=O)[C@@H]2CCCN2C(=O)[C@H]2CCCN2C(=O)[C@H](Cc2ccccc2)NC1=O [ZMK 2-82, c[Pro-Arg-Phe-Phe-Asn-Val-Phe-DPro]] (cyclo(PRFFNVF[dP]))", "Label": "1 (yes)"}
{"Molecule": "C[C@@H]1NC(=O)[C@H](CN)NC(=O)[C@H](Cc2ccccc2)NC(=O)[C@H](Cc2ccccc2)NC(=O)[C@H](Cc2c[nH]cn2)NC(=O)[C@@H]2CCCN2C(=O)[C@H]2CCCN2C(=O)[C@H](Cc2ccccc2)NC1=O [ZMK 2-99, c[Pro-His-Phe-Phe-Dap-Ala-Phe-DPro]] (cyclo(PHFF[Dap]AF[dP]))", "Label": "0 (no)"}

====

target: hMC4R (Homo sapiens, UniProt P32245); experiment: cAMP AlphaScreen bioassay, HEK293 cells stably expressing hMC4R; type: cell-based; parameters: expressed in transfected cells; conditions: hMC4R, cAMP
Sequence (P32245 whole entry): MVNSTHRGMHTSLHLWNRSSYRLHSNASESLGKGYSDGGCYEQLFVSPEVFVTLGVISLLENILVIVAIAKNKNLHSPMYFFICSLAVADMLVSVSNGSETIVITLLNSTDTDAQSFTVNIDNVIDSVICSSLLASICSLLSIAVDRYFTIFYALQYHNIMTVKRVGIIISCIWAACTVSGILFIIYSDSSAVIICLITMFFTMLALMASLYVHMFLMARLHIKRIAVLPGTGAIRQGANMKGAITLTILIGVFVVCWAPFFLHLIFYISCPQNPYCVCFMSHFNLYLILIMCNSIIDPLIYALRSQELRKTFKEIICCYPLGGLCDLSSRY
Square brackets hold non-standard residues; d marks the D form. Peptide text beside a SMILES is read from it. Dap = NC[C@H](N)C(=O)O

{"Compound": "C[C@@H]1NC(=O)[C@H](CN)NC(=O)[C@H](Cc2ccccc2)NC(=O)[C@H](Cc2ccccc2)NC(=O)[C@H](Cc2c[nH]cn2)NC(=O)[C@@H]2CCCN2C(=O)[C@H]2CCCN2C(=O)[C@H](Cc2ccccc2)NC1=O [ZMK 2-99, c[Pro-His-Phe-Phe-Dap-Ala-Phe-DPro]] (cyclo(PHFF[Dap]AF[dP]))", "Observed Inverse Agonism?": "No"}
{"Compound": "C[C@@H]1NC(=O)[C@H](CC(N)=O)NC(=O)[C@H](Cc2ccccc2)NC(=O)[C@H](Cc2ccccc2)NC(=O)[C@H](CCCNC(=N)N)NC(=O)[C@@H]2CCCN2C(=O)[C@H]2CCCN2C(=O)[C@H](Cc2ccccc2)NC1=O [MDE 6-82-3c, c[Pro-Arg-Phe-Phe-Asn-Ala-Phe-DPro]]", "Observed Inverse Agonism?": "Yes"}
{"Compound": "C[C@@H]1NC(=O)[C@H](CN)NC(=O)[C@H](Cc2ccccc2)NC(=O)[C@H](Cc2ccccc2)NC(=O)[C@H](CCCNC(=N)N)NC(=O)[C@@H]2CCCN2C(=O)[C@H]2CCCN2C(=O)[C@H](Cc2ccccc2)NC1=O [MDE 6-82-1c, c[Pro-Arg-Phe-Phe-Dap-Ala-Phe-DPro]]", "Observed Inverse Agonism?": "Yes"}
